Numbers sourced from PubChem BioAssay (NCI).

methodNotes: NCI Yeast Anticancer Drug Screen. Data for the mlh1 rad18 strain (AID 175)
setupConditions: S. cerevisiae mlh1 rad18 strain growth inhibition; at 5.0 µM (retest, dose inferred, filed as 0.5)
The panel holds about 79,000 compounds, 15% with a hit somewhere; the sample as a whole holds those more often. Calls of active or inactive are those of the source. Cut-off read from the data, not from the text of the source: active = growth inhibition above about 70%; inactive = the rest.
Mark one answer only. Choices: 1.0 (active), 0.0 (inactive)

# example entries with known answers
| molecule | groupLabel |
| --- | --- |
| O=[N+]([O-])c1cccc2nc3ccccc3c(NCCNCCO)c12 | 1.0 |
| C/C(=N\NC(=S)N1CCN(C2CCCCC2)CC1)c1ccccn1 | 0.0 |
| CCN(CC)CCCCCCNc1cc(C)cc2cccnc12 | 0.0 |

Outcome logged for CCOC(=O)CC1(C)C(=O)CCCC1=O in this assay:
0.0

Another molecule: OC(c1ccccc1)(c1ccccc1)C1CCCCC1
0.0

Another molecule: COC(=O)C(C#N)C(c1ccccc1)c1c[nH]c2ccccc12 (stereo unspecified)
0.0
